The following molecules are shown together with reported melting point values.
observation-type: melting point (°C)

>>> print(df.to_string())
                            compound_smiles  observation_type  units  value_reported
0       O=C1c2cc(OCc3ccccc3)nn2CCN1c1ccncc1     melting point     °C           167.2
1  O=C1c2cc(OCc3cccc(F)c3)nn2CCN1c1ccc(F)cc1     melting point     °C           116.4
2       O=C1c2cc(OCc3ccccc3)nn2CCN1c1cccnc1     melting point     °C           147.8
3  COc1cccc(COc2cc3n(n2)CCN(c2ccc(F)cc2)C3=O)c1     melting point     °C           105.1

###

# system: human mGluR5a receptor (Homo sapiens, UniProt P41594)
# Sequence (P41594 21-1180 isoform P41594-2 limits assumed): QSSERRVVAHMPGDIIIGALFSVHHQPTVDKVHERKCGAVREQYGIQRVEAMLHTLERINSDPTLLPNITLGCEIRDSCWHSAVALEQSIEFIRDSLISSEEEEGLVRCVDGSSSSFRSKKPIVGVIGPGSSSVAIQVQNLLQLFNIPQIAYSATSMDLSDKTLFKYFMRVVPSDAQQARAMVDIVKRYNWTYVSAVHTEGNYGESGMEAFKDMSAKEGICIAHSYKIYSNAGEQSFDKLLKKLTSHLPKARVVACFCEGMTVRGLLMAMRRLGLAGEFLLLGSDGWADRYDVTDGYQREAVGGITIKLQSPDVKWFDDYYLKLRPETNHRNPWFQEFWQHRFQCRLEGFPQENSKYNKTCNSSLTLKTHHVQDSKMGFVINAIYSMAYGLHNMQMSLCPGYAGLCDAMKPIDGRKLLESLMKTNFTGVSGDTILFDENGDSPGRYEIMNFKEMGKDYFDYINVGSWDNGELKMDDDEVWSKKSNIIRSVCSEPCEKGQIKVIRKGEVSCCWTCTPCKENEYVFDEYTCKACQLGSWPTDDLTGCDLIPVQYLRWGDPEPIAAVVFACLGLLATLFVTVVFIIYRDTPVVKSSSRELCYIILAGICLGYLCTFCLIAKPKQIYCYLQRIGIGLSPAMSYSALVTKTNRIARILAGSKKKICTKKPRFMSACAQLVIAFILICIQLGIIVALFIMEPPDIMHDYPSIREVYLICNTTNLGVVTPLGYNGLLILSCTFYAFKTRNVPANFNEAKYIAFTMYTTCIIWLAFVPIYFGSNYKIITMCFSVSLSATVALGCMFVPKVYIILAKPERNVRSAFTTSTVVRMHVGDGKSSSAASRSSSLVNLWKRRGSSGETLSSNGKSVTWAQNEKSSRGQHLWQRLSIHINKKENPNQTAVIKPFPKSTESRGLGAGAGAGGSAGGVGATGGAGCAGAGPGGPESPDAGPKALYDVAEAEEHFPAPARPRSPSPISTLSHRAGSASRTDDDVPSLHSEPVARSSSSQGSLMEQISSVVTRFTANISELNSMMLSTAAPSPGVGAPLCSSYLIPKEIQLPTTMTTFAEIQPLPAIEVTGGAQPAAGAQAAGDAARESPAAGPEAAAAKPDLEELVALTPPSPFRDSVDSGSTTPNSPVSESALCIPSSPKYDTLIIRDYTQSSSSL
# assay-overview: Cell-based functional assay (Ca2+ mobilization, FDSS), potentiation of glutamate EC20 response
# applied-conditions: H10H cell line; potentiation in presence of glutamate EC20; concentration in mol/L
Note to self: use 1.0 only for EC50 readings below 300 nM; a reading exactly at 300 nM still gets 0.0.

>>> print(df.to_string())
                                    compound  discrete_label
 0  COc1cccc(F)c1CN1CCn2nc(OCc3ccccc3)cc2C1=O             0.0
 1  COc1cc(N2CCn3nc(OCc4ccccc4)cc3C2=O)ccc1F             1.0
 2   O=C1c2cc(OCc3ccccc3)nn2CCCN1c1ccc(F)cn1             0.0
 3       O=C1c2cc(OCc3ccccc3)nn2CCN1c1cccnc1             0.0
 4        O=C1c2cc(OCc3ccccc3)nn2CCCN1CC1CC1             0.0
 5    O=C1c2cc(OCc3cccnc3)nn2CCN1c1ccc(F)cc1             0.0
 6  Cc1cccc(COc2cc3n(n2)CCN(c2ccc(F)cc2)C3=O)n1             0.0
 7  COc1cc(CN2CCn3nc(OCc4ccccc4)cc3C2=O)ccc1F             0.0
 8  O=C1c2cc(OCc3ccccc3)nn2CCCN1CC1CC1(F)F (centres unmarked)             0.0
 9    Cc1nccc(N2CCn3nc(OCc4ccccc4)cc3C2=O)n1             0.0
10   Cc1cc(N2CCn3nc(OCc4ccccc4)cc3C2=O)ncc1F             0.0
11       O=C1c2cc(OCc3ccccc3)nn2CCN1c1ccncc1             0.0
12    O=C1c2cc(OCc3ccccn3)nn2CCN1c1ccc(F)cc1             0.0
13  COc1ccccc1COc1cc2n(n1)CCN(c1ccc(F)cc1)C2=O             0.0
14      O=C1c2cc(OCc3ccccc3)nn2CCN1c1ccccc1F             1.0
15  N#Cc1cccc(COc2cc3n(n2)CCN(c2ccc(F)cc2)C3=O)c1             1.0
16    O=C1c2cc(OCc3ccccc3)nn2CCN1c1ccc(F)cn1             0.0
17    O=C1c2cc(OCc3ccncc3)nn2CCN1c1ccc(F)cc1             0.0
18  CN(C)c1cccc(N2CCn3nc(OCc4ccccc4)cc3C2=O)n1             1.0
19  C[C@@H]1Cn2nc(OCc3ccccc3)cc2C(=O)N1Cc1ccccc1             1.0
